Measured EC50 (pM), HEK-Blue IL-18R reporter assay accompanies every entry in the list below.
Target: T1, IL-18 receptor (IL-18Rαβ) on cells (UniProt Q13478 19-541; O95256 20-599, limits assumed)
T1 sequence (looked up) 1: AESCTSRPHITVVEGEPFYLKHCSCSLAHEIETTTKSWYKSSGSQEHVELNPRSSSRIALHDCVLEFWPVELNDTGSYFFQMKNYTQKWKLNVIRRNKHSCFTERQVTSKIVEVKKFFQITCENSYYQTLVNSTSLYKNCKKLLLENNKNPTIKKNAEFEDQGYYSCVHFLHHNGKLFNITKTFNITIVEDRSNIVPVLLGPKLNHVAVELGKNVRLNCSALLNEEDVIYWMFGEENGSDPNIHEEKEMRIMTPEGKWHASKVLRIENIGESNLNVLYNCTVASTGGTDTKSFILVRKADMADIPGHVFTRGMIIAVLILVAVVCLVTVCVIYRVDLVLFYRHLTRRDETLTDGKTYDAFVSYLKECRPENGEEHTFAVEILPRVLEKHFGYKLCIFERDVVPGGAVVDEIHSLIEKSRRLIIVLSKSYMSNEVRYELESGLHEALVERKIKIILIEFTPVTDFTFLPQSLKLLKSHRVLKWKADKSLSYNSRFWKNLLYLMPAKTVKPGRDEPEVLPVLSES
T1 sequence (looked up) 2: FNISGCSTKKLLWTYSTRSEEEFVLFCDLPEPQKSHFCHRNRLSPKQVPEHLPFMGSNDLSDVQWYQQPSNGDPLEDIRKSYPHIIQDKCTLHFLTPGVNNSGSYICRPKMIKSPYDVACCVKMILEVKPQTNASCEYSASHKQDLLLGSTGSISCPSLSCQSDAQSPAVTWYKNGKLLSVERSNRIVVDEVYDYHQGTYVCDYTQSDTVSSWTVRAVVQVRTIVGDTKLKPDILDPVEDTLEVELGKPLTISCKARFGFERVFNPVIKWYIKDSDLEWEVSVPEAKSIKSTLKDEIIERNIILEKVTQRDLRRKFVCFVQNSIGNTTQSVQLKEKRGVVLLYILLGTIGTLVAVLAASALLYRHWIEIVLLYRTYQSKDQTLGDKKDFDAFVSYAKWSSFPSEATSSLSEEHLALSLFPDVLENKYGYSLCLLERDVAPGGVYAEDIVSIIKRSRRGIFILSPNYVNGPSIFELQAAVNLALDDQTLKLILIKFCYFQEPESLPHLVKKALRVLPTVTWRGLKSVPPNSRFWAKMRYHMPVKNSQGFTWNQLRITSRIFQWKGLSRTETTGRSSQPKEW
Experiment: cell-based or functional assay
PARAMETER_MEASURED: EC50 (pM), HEK-Blue IL-18R reporter assay

>  <BINDER>
C184 (E6R, V11I, C38A, K53A, T63A, C76A, C127A) (ligand) YFGKLRSKLSIIRNLNDQVLFIDQGNRPLFEDMTDSDARDNAPRTIFIISMYADSQPRGMAVAISVKCEKISTLSAENKIISFKEMNPPDNIKDTKSDIIFFQRSVPGHDNKMQFESSSYEGYFLAAEKERDLFKLILKKEDELGDRSIMFTVQNED

>  <OBSERVED_RESULT>
0.04

$$$$
>  <BINDER>
C162 (K8E, V11I, C38A, C76A, Q103R, C127A) (ligand) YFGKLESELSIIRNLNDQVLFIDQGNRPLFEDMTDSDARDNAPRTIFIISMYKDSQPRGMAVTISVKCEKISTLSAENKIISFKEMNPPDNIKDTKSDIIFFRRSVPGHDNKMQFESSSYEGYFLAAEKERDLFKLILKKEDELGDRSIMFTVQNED

>  <OBSERVED_RESULT>
2.3

$$$$

From: patent US20240116997A1
